All figures here come from ChEMBL document CHEMBL4396907.

Listing: pIC50 of selected compounds
Target: Toll-like receptor 2 (Mus musculus)
Assay: Antagonist activity at TLR2 in mouse RAW264.7 cells assessed as PAM3CSK4-induced NO production measured after 24 hrs by Griess assay
pIC50: −log10 of the molar value.
Measured quantity: pIC50

>>> recorded_result("C=CCCSC[C@H](NC(=O)c1cc(O)cc(O)c1)C(=O)OC")
4.45
>>> recorded_result("C#CCSC[C@H](NC(=O)c1cc(OC)c(OC)c(OC)c1)C(=O)OC")
4.27
>>> recorded_result("C#CCSC[C@H](NC(=O)c1cc(O)cc(O)c1)C(=O)OC")
4.38
>>> recorded_result("COC(=O)[C@H](CSCc1ccccc1)NC(=O)c1cc(OC)c(OC)c(OC)c1")
4.49
>>> recorded_result("O=C(O)c1cc(O)c(O)c(O)c1 [GALLIC ACID]")
4.16
>>> recorded_result("COC(=O)[C@H](CSCc1ccc(F)cc1)NC(=O)c1cc(O)cc(O)c1")
4.42
>>> recorded_result("C=CCCSC[C@H](N)C(=O)OC")
4.34
>>> recorded_result("C=CCSC[C@H](NC(=O)c1cc(O)c(O)c(O)c1)C(=O)OC")
4.28
>>> recorded_result("COC(=O)[C@H](CSCc1ccc(F)cc1)NC(=O)c1cc(O)c(O)c(O)c1")
4.30
>>> recorded_result("C=CCSC[C@H](N)C(=O)OC")
4.26
>>> recorded_result("COC(=O)[C@H](CSCc1ccccc1)NC(=O)c1ccc(O)cc1")
4.28

----------
Listing: IC50 of selected compounds
Biological target: Toll-like receptor 2 (Mus musculus, UniProt Q9QUN7)
Sequence (Q9QUN7 whole entry): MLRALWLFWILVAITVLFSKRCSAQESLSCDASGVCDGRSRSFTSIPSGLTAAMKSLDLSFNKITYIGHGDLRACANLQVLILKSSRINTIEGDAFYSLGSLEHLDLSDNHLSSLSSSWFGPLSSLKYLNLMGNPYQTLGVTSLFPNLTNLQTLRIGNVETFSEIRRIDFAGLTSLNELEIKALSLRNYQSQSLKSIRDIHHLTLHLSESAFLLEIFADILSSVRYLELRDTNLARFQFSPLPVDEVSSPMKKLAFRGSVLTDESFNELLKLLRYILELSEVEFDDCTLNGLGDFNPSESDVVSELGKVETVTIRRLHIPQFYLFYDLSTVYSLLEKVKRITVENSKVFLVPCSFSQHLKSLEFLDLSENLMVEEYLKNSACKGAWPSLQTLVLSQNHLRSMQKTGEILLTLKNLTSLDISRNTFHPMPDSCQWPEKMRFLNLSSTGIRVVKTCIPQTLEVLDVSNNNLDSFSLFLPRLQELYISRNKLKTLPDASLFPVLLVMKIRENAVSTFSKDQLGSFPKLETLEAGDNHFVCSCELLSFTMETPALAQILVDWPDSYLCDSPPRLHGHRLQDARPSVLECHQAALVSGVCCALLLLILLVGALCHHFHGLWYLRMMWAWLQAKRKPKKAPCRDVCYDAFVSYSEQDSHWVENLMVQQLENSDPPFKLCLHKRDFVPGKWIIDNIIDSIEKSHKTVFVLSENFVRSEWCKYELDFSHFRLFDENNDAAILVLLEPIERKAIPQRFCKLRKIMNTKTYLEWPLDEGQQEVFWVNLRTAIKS
Test: Antagonist activity at TLR2 in mouse RAW264.7 cells assessed as PAM3CSK4-induced NO production measured after 24 hrs by Griess assay
Measured quantity: IC50 (µM)

>>> recorded_result("C=CCCCSC[C@H](NC(=O)c1ccc(O)cc1)C(=O)OC")
53
>>> recorded_result("C=CCSC[C@H](NC(=O)c1cc(OC)c(OC)c(OC)c1)C(=O)OC")
49.3
>>> recorded_result("C=CCCSC[C@H](NC(=O)c1cc(O)c(O)c(O)c1)C(=O)OC")
57.7
>>> recorded_result("COC(=O)[C@H](CSCc1ccc(F)cc1)NC(=O)c1cc(OC)c(OC)c(OC)c1")
28.6
>>> recorded_result("O=C(O)c1cc(O)cc(O)c1 [3,5-DIHYDROXYBENZOIC ACID]")
117

----------
Molecular target: Toll-like receptor 2 (Mus musculus)
Assay: Antagonist activity at TLR2 in mouse RAW264.7 cells assessed as PAM3CSK4-induced NO production measured after 24 hrs by Griess assay
pIC50: −log10 of the molar value.
Listing: pIC50 of selected molecules
Measured quantity: pIC50

>>> recorded_result("C=CCCCSC[C@H](NC(=O)c1cc(O)c(O)c(O)c1)C(=O)OC")
4.41
>>> recorded_result("C=CCCSC[C@H](NC(=O)c1cc(OC)c(OC)c(OC)c1)C(=O)OC")
4.56
>>> recorded_result("COC(=O)[C@H](CSCc1ccccc1)NC(=O)c1cc(O)cc(O)c1")
4.30
>>> recorded_result("C=CCCCSC[C@H](N)C(=O)OC")
4.50
>>> recorded_result("C#CCSC[C@H](NC(=O)c1ccc(O)cc1)C(=O)OC")
4.26
>>> recorded_result("O=C(O)c1ccc(O)cc1")
3.93
>>> recorded_result("C#CCSC[C@H](NC(=O)c1cc(O)c(O)c(O)c1)C(=O)OC")
4.15
